- Measurement target: Biotinylated CD33 protein (UniProt P20138)
- Sequence (P20138 18-259 limits assumed): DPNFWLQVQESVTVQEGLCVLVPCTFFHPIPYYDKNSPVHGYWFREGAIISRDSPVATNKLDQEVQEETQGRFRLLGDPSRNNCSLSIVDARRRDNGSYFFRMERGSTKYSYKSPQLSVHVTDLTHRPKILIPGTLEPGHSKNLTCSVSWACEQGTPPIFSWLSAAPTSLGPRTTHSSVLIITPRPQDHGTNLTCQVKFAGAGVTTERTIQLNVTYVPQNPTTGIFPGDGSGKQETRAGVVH
- Measurement description: Octet competition on biotinylated CD33; competitor 420
Parameter: Octet signal. Scope: all listed entries.

Solved cases below.
- Binder: "sdCD33_8 (VHH, sdAb from a naive llama phage library; also called 424; sdAb424) VHH: QVQLVESGGGLVQAGGSLRLSCAASGGAFSTYTMGWFRQAPGKEREFVAAIAWTGTHTYYSDSVKGRFTISRDNDKNTVFLQMNSLKPEDTAVYYCAQASSRYRAVTDSLSENHWGPGTQVTVST"
  Octet signal: 0.266
- Binder: "sdCD33_5 (VHH, sdAb from a naive llama phage library; also called 413; sdAb413) VHH: QVQLQESGGGLVQPGGSLRLSCAASGSVFSIYAMAWYRQAPGKQRELVAVITSGGATNYADSVKGRFTISRDIAKKTLYLQMNTLKPEDTAVYYCYAHLLIQPFDRFYDYWGQGTQVTVSS"
  Octet signal: 0.15
- Binder: "sdCD33_10 (VHH) VHH: QVQLVETGGGLVRAGGSLRLSCAASGRTADIYNIGWFRQAPGKEREFVAAITWIGRTPYYADAVKGRFAFSTDSAKNTVSLQMDNLKPEDTGVYYCNAAHYLEGNTDYYWGQGTQVTVSS"
  Octet signal: 0.95

For the binder shown here, sdCD33_4 (VHH) VHH: QVKLEESGGGSVQAGESLRLSCTASGITFRDYDIDWYRQAPGKEREWLATITPSGTTHYPDSVKGRATISRDSAKNTVYLQMNSLKPEDTARYECNTLAYWGSGTQVTVSS , give the reported Octet signal.
-0.0649
